Hey, just so you know, these numbers are from patent US20100260765A1.

A collection of binders and their measured ELISA reading
# assayed-system: T1, whole KDR-ECD (Cat. # 676490, Calbiochem) (human, UniProt P35968 20-764)
# T1 construct: extracellular domain; Bought soluble protein; also called soluble KDR; VEGF Receptor 2 D1-7
# T1 sequence (P35968 20-764): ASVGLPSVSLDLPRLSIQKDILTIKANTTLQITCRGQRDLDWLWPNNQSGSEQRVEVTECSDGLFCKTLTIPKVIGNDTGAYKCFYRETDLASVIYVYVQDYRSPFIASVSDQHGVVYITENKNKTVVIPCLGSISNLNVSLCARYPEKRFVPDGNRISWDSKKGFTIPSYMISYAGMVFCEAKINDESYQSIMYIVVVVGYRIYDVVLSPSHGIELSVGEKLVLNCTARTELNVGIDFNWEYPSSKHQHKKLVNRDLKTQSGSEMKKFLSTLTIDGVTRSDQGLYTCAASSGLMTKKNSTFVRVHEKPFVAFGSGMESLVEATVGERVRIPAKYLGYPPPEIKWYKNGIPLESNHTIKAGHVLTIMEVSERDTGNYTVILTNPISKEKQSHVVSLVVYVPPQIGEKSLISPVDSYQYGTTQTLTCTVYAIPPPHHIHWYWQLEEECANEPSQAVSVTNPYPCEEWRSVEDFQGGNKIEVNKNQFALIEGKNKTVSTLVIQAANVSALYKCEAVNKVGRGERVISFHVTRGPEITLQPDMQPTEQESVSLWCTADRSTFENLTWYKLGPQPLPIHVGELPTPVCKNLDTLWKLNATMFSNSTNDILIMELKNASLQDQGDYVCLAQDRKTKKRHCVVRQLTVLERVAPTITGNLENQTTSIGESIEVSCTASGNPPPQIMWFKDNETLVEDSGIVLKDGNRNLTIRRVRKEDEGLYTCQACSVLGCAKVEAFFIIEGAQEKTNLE
# test-details: ELISA, KDR-ECD coat 5 ug/mL, antibody 1 ug/mL
readout-type: ELISA reading

binder="32F4 (antibody, V domains shown, Fully human monoclonal antibody from a XenoMouse hybridoma (IgG2 or IgG4 strain), purified) VH: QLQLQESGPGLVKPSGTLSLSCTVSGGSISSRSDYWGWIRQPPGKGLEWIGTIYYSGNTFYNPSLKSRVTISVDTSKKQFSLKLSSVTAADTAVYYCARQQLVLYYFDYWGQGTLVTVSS VL: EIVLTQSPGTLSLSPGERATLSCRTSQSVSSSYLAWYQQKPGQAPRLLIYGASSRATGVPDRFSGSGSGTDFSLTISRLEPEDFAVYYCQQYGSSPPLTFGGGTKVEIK" observed_measurement=1.93
binder="31E11 (antibody, V domains shown, Fully human monoclonal antibody from a XenoMouse hybridoma (IgG2 or IgG4 strain), purified) VH: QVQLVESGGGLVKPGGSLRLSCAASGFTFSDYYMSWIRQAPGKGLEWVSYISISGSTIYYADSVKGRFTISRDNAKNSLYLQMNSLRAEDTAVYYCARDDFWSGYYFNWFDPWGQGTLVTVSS VL: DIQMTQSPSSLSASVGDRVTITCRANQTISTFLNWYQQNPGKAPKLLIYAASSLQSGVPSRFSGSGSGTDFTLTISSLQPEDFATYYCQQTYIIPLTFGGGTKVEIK" observed_measurement=1.96
